Test system: RKO colon cancer cell line
Experiment: Cell viability assay (Alamar Blue, 7 days), RKO
Format: cell-based
Conditions: 168 h; MGMT (+)/MMR (−); 7 day; read-out: IC50, RKO
REPORTED METRIC: pIC50
Scale: negative log10 of molar concentration, which is what pIC50 denotes.

The compound listed as C#CCn1nnc2c(Cl)ncn2c1=O has a reported pIC50 of 5.00

###

Assay: Hydrolytic stability studies
Assay type: physicochemical
Details: PBS, pH 8, calculated from hydrolytic stability data, 37° C., read-out: Half-life, pH 8
Exercise: state measured half-life at 100 μM for each of the compounds provided.
Could you give me the number in min? Just the number is fine.

C#CCn1nnc2c(C(N)=O)ncn2c1=O has a reported half-life at 100 μM of 15

Input Cn1nnc2c(C(N)=O)ncn2c1=O [TMZ, temozolomide, reference compound] . Output half-life at 100 μM: 29

###

System: D341 Med medulloblastoma cell line
Experiment: Cell viability assay (Alamar Blue, 7 days), D341 Med
Format: cell-based
Conditions: Homo sapiens, 168 h, MGMT (+)/MMR (−), 7 day
REPORTED METRIC: pIC50
Kindly note that pIC50 refers to -log10 of the concentration in mol/L and answer with the value alone.

Lookup result for Cn1nnc2c(C(N)=O)ncn2c1=O [TMZ, temozolomide, reference compound] ; measured pIC50: 3.34

The compound listed as C#CCn1nnc2c(Cl)ncn2c1=O has a reported pIC50 of 5.10

###

Kindly supply the reported IC50 values for the records listed here.
Tested on: U87 GBM cell line
Assay: Cell viability assay (Alamar Blue, 7 days), U87
Assay type: cell-based, human
Conditions: Homo sapiens, 168 h, MGMT (−) MMR (+), 600 c/w, SEM, n=3, read-out: Activity, U87
Method: Cell Culture and Reagents. All cell lines were grown in a 37° C., 5% CO2, humidified environment, in media containing 1% penicillin/streptomycin. Stable cell line generation of GL261 MGMT+ was purchased from Creative Biogene. Cell culture conditions are as follows: cell lines U87, T98G, and RKO were grown in EMEM with 10% FBS. […] Cell Viability Assays. […] Cells were incubated for seven days (unless otherwise noted) before viability was assessed by the Alamar Blue assay. […]
Express your answer in µM, writing the number without its unit.

Record Cn1nnc2c(C(N)=O)ncn2c1=O [TMZ, temozolomide, reference compound] , field IC50: 51

Lab note: measured IC50 of C#CCn1nnc2c(C(=O)N(C)C)ncn2c1=O was 20

response.value for C#CCn1nnc2c(Cl)ncn2c1=O (field: IC50) = 16

Form field IC50, entry CC#CCn1nnc2c(C(=O)N(C)C)ncn2c1=O : 16

Sample C#CCn1nnc2c(C(=O)NC)ncn2c1=O ; IC50 observed: 40

###

I'd appreciate it if you could supply Kp at 15 min values for the items below.
Assay: in vivo
Conditions: CD-1 IGS, mouse, brain and serum, iv, 25 mg/kg

// field: Kp at 15 min; key: C#CCn1nnc2c(C(N)=O)ncn2c1=O [Compound 10] ; value = 0.06

GET /value?item= C#CCn1nnc2c(Cl)ncn2c1=O [CPZ] &field=Kp at 15 min returns 1.2

Please fill in: Kp at 15 min reported for Cn1nnc2c(C(N)=O)ncn2c1=O [TMZ, temozolomide, reference compound] = 0.08

###

Assay: Maximum tolerated dose / tolerability in mice
Assay type: in vivo
Conditions: mouse, in vivo, 66 mg/kg, once per day over 5 days, intravenous, read-out: MTD, I.V.
Give measured MTD at 5 days for each item. Keep answers brief.
Give the quantity in mg/kg, number only.

Per the record, Cn1nnc2c(C(N)=O)ncn2c1=O [TMZ, temozolomide, reference compound] has MTD at 5 days of 66

Sure, the documented MTD at 5 days for CC#CCn1nnc2c(C(=O)N(C)C)ncn2c1=O is 66
